Consider the following compounds; for each one, report its pIC50.
# TARGET SYSTEM: Mitogen-activated protein kinase 10 (Homo sapiens, UniProt P53779)
# Sequence (P53779 whole entry): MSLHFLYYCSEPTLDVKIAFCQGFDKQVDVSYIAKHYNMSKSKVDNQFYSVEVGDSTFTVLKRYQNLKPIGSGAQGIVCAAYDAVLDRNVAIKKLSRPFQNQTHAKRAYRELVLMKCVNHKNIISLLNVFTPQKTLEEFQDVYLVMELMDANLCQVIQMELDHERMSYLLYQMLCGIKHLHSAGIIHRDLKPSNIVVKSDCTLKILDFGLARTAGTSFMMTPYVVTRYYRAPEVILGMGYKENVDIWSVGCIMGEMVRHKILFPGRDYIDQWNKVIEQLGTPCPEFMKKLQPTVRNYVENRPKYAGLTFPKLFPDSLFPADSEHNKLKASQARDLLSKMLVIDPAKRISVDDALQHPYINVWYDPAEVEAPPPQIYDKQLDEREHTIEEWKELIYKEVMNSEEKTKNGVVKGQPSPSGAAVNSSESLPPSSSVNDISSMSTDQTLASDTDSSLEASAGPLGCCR
# METHOD NOTES: Inhibition of JNK3 (unknown origin)-mediated ATF2 Thr71 phosphorylation by HTRF assay
Numbers only, as −log10 of the molar value.

Example cases with answers are listed next.
>>> number("COc1cc(NC(=O)c2cccc(-n3ncc4cc(Nc5ccccc5)ccc43)c2)cc(OC)c1OC")
7.62
>>> number("NC(=O)c1cccc(-n2ncc3cc(Nc4ccccc4F)ccc32)c1")
7.20
>>> number("Cc1cccc(Nc2ccc3c(cnn3-c3cccc(C(=O)NCCN4CCN(C5CCC5)CC4)c3)c2)c1Cl")
7.40
>>> number("COc1cc(NC(=O)c2cccc(-n3ncc4cc(Nc5ccccc5C)ccc43)c2)cc(OC)c1OC")
7.23

Please give the measured pIC50 for this compound: `COc1cc(NC(=O)c2cccc(-n3ncc4cc(Nc5ccccc5Cl)ccc43)c2)cc(OC)c1OC`
7.92
